- target-system: human GPR119 (Homo sapiens, UniProt Q8TDV5)
- Sequence (Q8TDV5 1-308 limits assumed): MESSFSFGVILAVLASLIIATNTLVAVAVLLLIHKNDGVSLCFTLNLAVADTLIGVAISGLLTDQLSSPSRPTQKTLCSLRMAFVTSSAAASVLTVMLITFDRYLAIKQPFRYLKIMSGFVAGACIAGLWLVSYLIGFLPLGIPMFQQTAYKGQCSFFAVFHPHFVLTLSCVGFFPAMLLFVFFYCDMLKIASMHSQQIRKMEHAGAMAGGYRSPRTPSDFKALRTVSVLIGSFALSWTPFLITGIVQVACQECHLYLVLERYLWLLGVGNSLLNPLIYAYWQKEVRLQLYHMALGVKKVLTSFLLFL
- test-method-notes: Measurement of GPR119 signaling (cAMP assay) in HEK 293 cells stably transfected with human GPR119
- Type: cell-based
- experimental-context: table of Examples 5-56
reported-property: pEC50
Scale explanation: pEC50 corresponds to minus log10 of a concentration expressed in moles per litre.

INSERT INTO results (compound, reported_property, observed) VALUES
  ('CC(=O)c1ccc(OCC[C@@H]2C[C@@H]2C2CCN(CC(F)(F)C(F)(F)F)CC2)cc1F', 'pEC50', 7.29),
  ('O=C(NC1CC(F)(F)C1)c1c(F)cc(OCC[C@@H]2C[C@@H]2C2CCN(CC(F)(F)F)CC2)cc1F', 'pEC50', 7.69),
  ('O=C(NCC1CCCO1)c1ccc(OCC[C@@H]2C[C@@H]2C2CCN(CC(F)(F)C(F)(F)F)CC2)cc1F (stereo partly shown)', 'pEC50', 8.80);

Enquiry: Entry `CC(C)(CO)NC(=O)c1ccc(OCC[C@@H]2C[C@@H]2C2CCN(CC(F)(F)C(F)(F)F)CC2)cc1F` has what pEC50?
Return: 8.63

* * *

- target-system: human GPR119 (Homo sapiens)
- test-method-notes: Measurement of GPR119 signaling (cAMP assay) in HEK 293 cells stably transfected with human GPR119
- Type: cell-based
- experimental-context: table of Examples 5-56
EC50: recorded values

INSERT INTO measurements (smiles_data, reported_property, observed) VALUES
  ('O=C(NC1CC1)c1c(F)cc(OCC[C@@H]2C[C@@H]2C2CCN(CC(F)(F)F)CC2)cc1F', 'EC50', '5.28 nM'),
  ('CS(=O)(=O)c1ccc(OCC[C@@H]2C[C@@H]2C2CCN(CC(F)(F)C(F)(F)F)CC2)nc1', 'EC50', '14 nM'),
  ('COCCNC(=O)c1c(F)cc(OCC[C@@H]2C[C@@H]2C2CCN(CC(F)(F)F)CC2)cc1F', 'EC50', '68 nM');

Let us move to another entry and its EC50.
Enquiry: Entry `FC(F)(F)C(F)(F)CN1CCC([C@H]2C[C@H]2CCOc2ccc(-n3cnnn3)cc2)CC1` has what EC50?
Return: 24.2 nM
